Tested Target: Cholinesterase (Homo sapiens)
pIC50: −log10 of the molar value.
Hi, to clarify the labels: 1 covers pIC50 from 8 upward, -1 covers anything below 8.

Please review the entries below; each comes with its answer.
>  <Molecule>
CCCCN(CCCc1ccc2ccccc2c1)CCC1CCCCCC1

>  <Tested Target>
Cholinesterase (Homo sapiens)

>  <Category>
1

$$$$
>  <Molecule>
CN(C)C1CCC(CCN(CCCc2c[nH]c3ccccc23)CCC2CCCCCC2)CC1 (stereo in doubt; 32b)

>  <Tested Target>
Cholinesterase (Homo sapiens)

>  <Category>
1

$$$$
>  <Molecule>
CCCCN(CCc1cn(C(=O)N(C)C)c2ccccc12)CCC1CCCCCC1

>  <Tested Target>
Cholinesterase (Homo sapiens)

>  <Category>
1

$$$$
>  <Molecule>
CCCCN(CCC1CCCCCC1)Cc1cc(OC(=O)N(C)C)c2ccccc2c1

>  <Tested Target>
Cholinesterase (Homo sapiens)

>  <Category>
1

$$$$
>  <Molecule>
CCCCN(CCCC1CCNc2ccccc21)CCC1CCCCCC1 (centres undefined)

>  <Tested Target>
Cholinesterase (Homo sapiens)

>  <Category>
-1

$$$$
>  <Molecule>
CN(C)C1CCC(CCN(CCCc2c[nH]c3ccccc23)CCC2CCCCCC2)CC1 (stereo in doubt; 32a)

>  <Tested Target>
Cholinesterase (Homo sapiens)

>  <Category>
1

$$$$
>  <Molecule>
CCCCN(CCCc1cccc2ccccc12)CCC1CCCCCC1

>  <Tested Target>
Cholinesterase (Homo sapiens)

>  <Category>
1

$$$$
>  <Molecule>
CCCCN(CCCc1c[nH]c2ccccc12)CCC1CCCCCC1

>  <Tested Target>
Cholinesterase (Homo sapiens)

>  <Category>
1

$$$$
>  <Molecule>
CCCCN(CCC1CCCCCC1)Cc1cc2ccccc2cc1OC(=O)N(C)C

>  <Tested Target>
Cholinesterase (Homo sapiens)

>  <Category>
1

$$$$
>  <Molecule>
CCCCN(CCC1CCCCCC1)Cc1cn(OC(=O)N(C)C)c2ccccc12

>  <Tested Target>
Cholinesterase (Homo sapiens)

>  <Category>
-1

$$$$

Decide: is the reported value of pIC50 for CCCCN(CCc1c(-c2ccccc2OC(=O)N(C)C)[nH]c2ccccc12)CCC1CCCCCC1 equal to or greater than 8?
1

Decide: is the reported value of pIC50 for CCCCN(CCCc1cc2ccccc2[nH]1)CCC1CCCCCC1 equal to or greater than 8?
1

Decide: is the reported value of pIC50 for CCCCN(C)[C@@H](Cc1c[nH]c2ccccc12)CN(C)CCC1CCCCCC1 equal to or greater than 8?
1

---

Notes on IC50 obtained with Cholinesterase (Homo sapiens, UniProt P06276).
Sequence (P06276 whole entry): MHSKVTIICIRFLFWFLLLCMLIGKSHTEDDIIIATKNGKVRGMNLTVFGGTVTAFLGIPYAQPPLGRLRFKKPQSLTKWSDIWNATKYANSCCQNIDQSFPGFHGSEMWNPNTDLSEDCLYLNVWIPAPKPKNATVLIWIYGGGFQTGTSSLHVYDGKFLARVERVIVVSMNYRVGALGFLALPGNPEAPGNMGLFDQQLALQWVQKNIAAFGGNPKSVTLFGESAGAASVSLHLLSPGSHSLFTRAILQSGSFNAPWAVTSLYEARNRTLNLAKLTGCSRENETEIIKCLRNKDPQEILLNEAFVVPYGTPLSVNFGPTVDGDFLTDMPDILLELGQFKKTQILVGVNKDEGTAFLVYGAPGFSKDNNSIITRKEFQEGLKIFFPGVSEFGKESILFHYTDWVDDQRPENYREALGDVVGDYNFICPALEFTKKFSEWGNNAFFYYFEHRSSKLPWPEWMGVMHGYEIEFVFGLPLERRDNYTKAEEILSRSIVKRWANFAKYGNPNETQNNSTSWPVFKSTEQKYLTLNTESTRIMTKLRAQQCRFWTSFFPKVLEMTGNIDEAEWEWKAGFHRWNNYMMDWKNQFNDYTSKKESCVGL
Hi! Could you send only the number? It should be in µM, unit omitted.

Would you please look over these solved cases?
>  <Compound>
CCCCN(CCC1CCCCCC1)Cc1c[nH]c2ncccc12

>  <IC50, µM>
0.083

$$$$
>  <Compound>
CCCCN(CCc1c[nH]c2ccc(O)cc12)CCC1CCCCCC1

>  <IC50, µM>
0.0335

$$$$
>  <Compound>
CCCCN(CCCc1c[nH]c2ccccc12)CCC1CCN(Cc2ccccc2)CC1

>  <IC50, µM>
0.0293

$$$$
>  <Compound>
CCCCN1CN(CCC2CCCCCC2)C[C@@H]1Cc1c[nH]c2ccccc12

>  <IC50, µM>
0.0087

$$$$
>  <Compound>
CN(C)c1ccc(/C=C/CN(CCCc2c[nH]c3ccccc23)CCC2CCCCCC2)cc1

>  <IC50, µM>
0.0046

$$$$
>  <Compound>
CCCCN(CCCc1c[nH]c2ccccc12)CCC1CCC(N(C)C)CC1 (stereo in doubt; 33b)

>  <IC50, µM>
0.214

$$$$

Hi! What's the reported IC50 for c1ccc2c(CCCN(CCC3CCCCCC3)CCC3CCCCC3)c[nH]c2c1 on Cholinesterase (Homo sapiens, UniProt P06276)?
0.0049

Hi! What's the reported IC50 for CCCCN(CCOc1cccc2c(OC(=O)N(C)C)cccc12)CCC1CCCCCC1 on Cholinesterase (Homo sapiens, UniProt P06276)?
0.0058

Hi! What's the reported IC50 for c1ccc2c(CCNCCC3CCCCCC3)c[nH]c2c1 on Cholinesterase (Homo sapiens, UniProt P06276)?
0.0315

Hi! What's the reported IC50 for CCCCN[C@H](CNCCC1CCCCCC1)Cc1c[nH]c2ccccc12 on Cholinesterase (Homo sapiens, UniProt P06276)?
0.0101
